- SYSTEM_NAME: Thymidylate synthase (Homo sapiens)
- Sequence (P04818 whole entry): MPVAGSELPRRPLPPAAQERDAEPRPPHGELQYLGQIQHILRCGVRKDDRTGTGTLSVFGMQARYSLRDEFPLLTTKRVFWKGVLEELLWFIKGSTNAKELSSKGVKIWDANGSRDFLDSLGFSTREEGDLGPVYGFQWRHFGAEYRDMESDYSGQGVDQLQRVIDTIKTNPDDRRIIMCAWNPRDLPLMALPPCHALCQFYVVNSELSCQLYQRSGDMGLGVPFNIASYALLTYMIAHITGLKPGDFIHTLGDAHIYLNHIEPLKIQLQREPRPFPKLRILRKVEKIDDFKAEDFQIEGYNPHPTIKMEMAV
- PROTOCOL_DETAILS: Inhibition of human Thymidylate synthase
PROPERTY: Ki (nM)
Output spec: scalar in nM, unitless text.

Example compounds with recorded Ki:
SUBSTANCE_SMILES	UNIT_ABBREVIATION	Ki
Cc1nc(O)c2c(Sc3ccccn3)cccc2n1	nM	190000
Cc1nc(O)c2c(Sc3cccnc3)c(C)ccc2n1	nM	1100
Cc1ccc2nc(N)nc(O)c2c1Sc1ccnc(N(C)C)c1	nM	50

Next:
Provide the documented Ki with Thymidylate synthase (Homo sapiens) as the system for Cc1nc(O)c2c(Sc3ccncc3)c(C)ccc2n1
58

----------
- SYSTEM_NAME: Thymidylate synthase (Escherichia coli)
- Sequence (C3SWJ7 whole entry): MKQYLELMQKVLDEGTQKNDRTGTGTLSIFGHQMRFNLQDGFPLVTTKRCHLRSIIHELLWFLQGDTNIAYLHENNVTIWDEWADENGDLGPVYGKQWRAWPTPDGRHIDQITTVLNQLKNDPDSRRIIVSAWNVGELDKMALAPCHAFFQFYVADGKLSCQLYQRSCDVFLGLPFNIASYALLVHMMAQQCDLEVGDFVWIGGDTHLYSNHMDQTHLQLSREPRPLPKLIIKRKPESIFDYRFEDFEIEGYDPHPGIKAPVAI
- PROTOCOL_DETAILS: Inhibition of purified Escherichia coli Thymidylate synthase
pKi: −log10 of the molar value.
PROPERTY: pKi

SUBSTANCE_SMILES	pKi
Cc1nc(O)c2c(Sc3ccccn3)cccc2n1	< 4.10

Requested field: pKi. Item: Cc1nc(O)c2c(Oc3ccccc3)cccc2n1
< 4.00

Requested field: pKi. Item: Cc1nc(O)c2c(Sc3ccccc3)cccc2n1
< 5.00
